test: NCI Yeast Anticancer Drug Screen. Data for the bub3 strain (AID 167)
condition.parameters: S. cerevisiae bub3 mutant strain, at 50.0 µM, stronger effect = higher value
This is part of a sample that, as a whole, favours compounds with a hit. Of some 79,000 tested, about 15% had one in any assay.
Could you please report measured growth inhibition for the items listed next?
API: value field is a number in %; no unit string.

Look at this molecule and give its reported growth inhibition. "O=[N+]([O-])c1ccc(O)c(N=Cc2ccc(C=Nc3cc([N+](=O)[O-])ccc3O)cc2)c1"
-5.1

For the molecule NC(=O)CC(NC(=O)OCc1ccccc1)C(N)=O (configuration not stated) , what growth inhibition is on record?
10.8

What value of measured growth inhibition is listed for CCCCC(/C=C\C(=O)O)CC (configuration not stated) ?
5.75

Record request: growth inhibition value, item "O=C(CCCCl)CCCCl"
-3.6

Consider the molecule CCCCON1C[C@H](OC(C)=O)C(OC(C)=O)[C@H](OC(C)=O)C1 (some centres not stated) and give its measured growth inhibition.
16.9

// returns reported growth inhibition for input "Fc1cccc2c1Cc1ccccc1-2"
-1.85

So what's the measured growth inhibition for this one? "CN1CCCC1"
16.6

# lookup: growth inhibition of "COc1ccc2nc3ccccc3c(NCCCN(C)C)c2c1"
6.65

Given the entry CCCCN(CCCC)CC(O)c1cc2ccc(Cl)cc2nc1-c1ccc(Cl)cc1 (configuration not stated) , report its measured growth inhibition.
-6.15

Fill in the blank: the reported growth inhibition of CCOC(=O)CCC(NC(=O)c1ccc(OCc2ccc3nc(OC)c(OC)nc3c2)cc1)C(=O)OCC (configuration not stated) is ____.
-4.75

Which growth inhibition is listed for "CN(C(=O)CCC(=O)O)c1ccccc1C(=O)O" ?
0.85

Fill blank: measured growth inhibition of the molecule CCN(CC)CC(O)Cn1cnc2c(=S)nc[nH]c21 (configuration not stated) is ____.
1.45

Hello, the source for this data is PubChem BioAssay (NCI), in case you need it.
